experiment: Acute toxicity, mortality within 7 days among NMRI mice after single administration
setup conditions: in vivo, iv, mouse
readout kind: LD50 at 168 h (mg/kg)
// return numeric value only (unit: mg/kg, not printed)

Here is how some compounds turned out for LD50 at 168 h.
> print(dat)
                                   compound   readout.kind  measured.result
1  CCCn1c(=O)c2c(ncn2CCCCC(O)CO)n(C)c1=O (stereo not shown) [Example 18]  LD50 at 168 h              300
2  CCCn1c(=O)c2c(ncn2CCCCCC(O)CO)n(CC)c1=O (stereo not shown) [Example 51]  LD50 at 168 h              300

Here's the next entry for you.
Returns the measured LD50 at 168 h for the input compound. Input: CCCn1c(=O)c2c(ncn2CCCCC(O)CO)n(CC)c1=O (stereo not shown) [Example 1]
254

---

experiment: Acute toxicity, mortality within 7 days among NMRI mice after single administration
setup conditions: in vivo, po, mouse
From the text: Determination of the LD50 values was by the standard method of the mortality occurring within 7 days among NMRI mice after a single intravenous (i.v.), intraperitoneal (i.p.) or oral (p.o.) administration. *determined by the method of Litchfield and Wilcoxon (J. Pharmacol. exp.
Readings of LD50 at 168 h for the listed molecules
Output should be the measured figure followed by the unit it is expressed in.

> print(dat)
                                   molecule  measured.result
1  CCCn1c(=O)c2c(ncn2CCCCC(O)CO)n(CC)c1=O (centres unmarked) [Example 1]       1450 mg/kg

Here's the next entry for you.
Returns the measured LD50 at 168 h for the input molecule. Input: Cn1c(=O)c2[nH]cnc2n(C)c1=O.NCCN [Theophylline-ethylenediamine, theophylline-ethylenediamine, reference compound]
550 mg/kg

---

Readings of LD50 at 168 h for the listed compounds
experiment: Acute toxicity, mortality within 7 days among NMRI mice after single administration
setup conditions: in vivo, iv, mouse
// return numeric value only (unit: mg/kg, not printed)

> print(dat)
                                   compound  measured.result
1  CCCn1c(=O)n(CCCCC(O)CO)c(=O)c2c1ncn2C (stereo not shown)              250

Returns the measured LD50 at 168 h for the input compound. Input: Cn1c(=O)c2[nH]cnc2n(C)c1=O.NCCN [Theophylline-ethylenediamine, theophylline-ethylenediamine, reference compound]
195

Then CCn1c(=O)n(C)c(=O)c2c1ncn2CCCCC(O)CO (stereo not shown) ?
300

---

experiment: Acute toxicity, mortality within 7 days among NMRI mice after single administration
setup conditions: in vivo, iv, mouse
readout kind: LD50 at 168 h (mg/kg)
// return numeric value only (unit: mg/kg, not printed)

> print(dat)
                                   molecule  measured.result
1  CCCCn1c(=O)c2c(ncn2CCCCC(O)CO)n(CC)c1=O (stereo not shown)              205
2  CCn1c(=O)c2c(ncn2CCCCC(O)CO)n(CC)c1=O (stereo not shown)              325
3  CCCCCn1c(=O)c2c(ncn2CCCCC(O)CO)n(CC)c1=O (stereo not shown)              200
4  CCCCn1c(=O)c2c(ncn2CCCCC(O)CO)n(C)c1=O (stereo not shown)              147
5  CC(C)CCn1c(=O)c2c(ncn2CCCCC(O)CO)n(C)c1=O (stereo not shown)              167
6  CCCn1c(=O)n(C)c(=O)c2c1ncn2CCCCC(O)CO (stereo not shown)              250

Returns the measured LD50 at 168 h for the input molecule. Input: CCCCCn1c(=O)c2c(ncn2CCCCC(O)CO)n(C)c1=O (stereo not shown)
155

// data source = patent US4616020A
